Reported EC50 values follow for various compounds
target: UniProt C7FF08; assay: cell-based; conditions: EC50 (M), agonist assay, stable inducible cCaSR line; > 0.01 M = maximal response not reached
Sequence (C7FF08 1-1081): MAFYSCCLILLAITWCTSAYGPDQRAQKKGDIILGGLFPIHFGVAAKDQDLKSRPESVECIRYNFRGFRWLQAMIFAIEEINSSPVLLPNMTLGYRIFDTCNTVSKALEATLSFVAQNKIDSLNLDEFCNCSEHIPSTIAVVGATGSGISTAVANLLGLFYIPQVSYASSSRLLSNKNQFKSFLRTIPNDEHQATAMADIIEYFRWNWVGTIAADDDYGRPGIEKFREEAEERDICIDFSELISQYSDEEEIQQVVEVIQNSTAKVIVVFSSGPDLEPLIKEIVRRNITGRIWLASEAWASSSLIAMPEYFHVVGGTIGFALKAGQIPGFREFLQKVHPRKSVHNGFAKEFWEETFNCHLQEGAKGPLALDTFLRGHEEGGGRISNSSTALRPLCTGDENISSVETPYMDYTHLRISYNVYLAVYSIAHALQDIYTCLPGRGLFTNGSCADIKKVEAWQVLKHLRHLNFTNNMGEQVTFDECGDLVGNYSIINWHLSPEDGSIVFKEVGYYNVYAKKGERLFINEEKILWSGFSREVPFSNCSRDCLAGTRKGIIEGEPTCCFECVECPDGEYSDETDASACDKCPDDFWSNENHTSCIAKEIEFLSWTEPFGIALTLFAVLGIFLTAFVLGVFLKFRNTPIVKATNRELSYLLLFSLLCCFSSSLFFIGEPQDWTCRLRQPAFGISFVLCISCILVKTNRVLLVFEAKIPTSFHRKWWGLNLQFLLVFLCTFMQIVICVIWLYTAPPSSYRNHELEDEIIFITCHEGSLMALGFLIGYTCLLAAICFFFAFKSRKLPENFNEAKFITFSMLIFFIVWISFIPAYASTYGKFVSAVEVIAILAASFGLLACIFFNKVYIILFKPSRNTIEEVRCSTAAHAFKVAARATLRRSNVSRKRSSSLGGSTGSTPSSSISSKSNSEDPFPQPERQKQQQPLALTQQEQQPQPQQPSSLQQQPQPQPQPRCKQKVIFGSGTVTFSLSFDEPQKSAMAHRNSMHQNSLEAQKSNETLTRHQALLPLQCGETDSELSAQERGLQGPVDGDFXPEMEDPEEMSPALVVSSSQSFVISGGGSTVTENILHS
Where a name gives a salt, the structure may show the parent alone.
The reply should contain only the number, in M.

// worked examples, EC50 included
N[C@@H](CS(=O)(=O)O)C(=O)O [L-Cysteic acid monohydrate]	0.00234
N[C@@H](CCC(=O)N[C@@H](Cc1ccc(O)cc1)C(=O)O)C(=O)O	0.00388
C[Se]C[C@H](N)C(=O)O	0.00447
N[C@@H](CCC(=O)N[C@@H](CS)C(=O)NCC(=O)O)C(=O)O	0.00639
N[C@@H](CCC(=O)N[C@@H](Cc1ccccc1)C(=O)O)C(=O)O	0.00232
CNC(C)C1CCC(N)C(OC2C(N)CC(N)C(OC3OCC(C)(O)C(NC)C3O)C2O)O1 (stereo not drawn) [Gentamicin, reference compound]	0.000989
CC(C)[C@H](NC(=O)CC[C@H](N)C(=O)O)C(=O)NCC(=O)O	0.00422
N[C@@H](CCC(=O)N[C@@H](CSCCO)C(=O)NCC(=O)O)C(=O)O [S-(2-Hydroxyethyl)glutathione]	0.00211
CC(C)[C@H](NC(=O)CC[C@H](N)C(=O)O)C(=O)O	0.00452
CSC[C@H](NC(=O)CC[C@H](N)C(=O)O)C(=O)NCC(=O)O	0.00442

// query So what does the record say about EC50 for NC[C@@H]1O[C@H](O[C@H]2[C@@H](O)[C@H](O[C@@H]3[C@@H](O)[C@H](N)C[C@H](N)[C@H]3O[C@H]3O[C@H](CO)[C@@H](O)[C@H](O)[C@H]3N)O[C@@H]2CO)[C@H](N)[C@@H](O)[C@@H]1O [Paromomycin sulfate salt, reference compound] ?
// result 0.00108

// query So what does the record say about EC50 for N[C@@H](CC(=O)O)C(=O)O ?
// result 0.00411

// query So what does the record say about EC50 for N[C@@H](CCC(=O)N[C@@H](CSCc1c[nH]c2ccccc12)C(=O)NCC(=O)O)C(=O)O ?
// result 0.00374

// query So what does the record say about EC50 for CC[C@H](NC(=O)CC[C@H](N)C(=O)O)C(=O)NCC(=O)O ?
// result 0.00265

// query So what does the record say about EC50 for NCCCCNCCCN ?
// result 0.00249
